The measurements presented in this section are drawn from patent US20170298395A1.

- Tested on: RubisCO
- Assay type: cell-based, Ralstonia eutropha
- ASSAY CONDITIONS: Table 12, chemoautotrophic (induced) growth
OBSERVABLE: Chemoautotrophic RubisCO activity

Qu. Looking for the measured Chemoautotrophic RubisCO activity of G205D/G118D (protein) MSSFLRALTLRQLQIFVTVARHASFVRAAEELHLTQPAVSMQVKQLESVVGMALFERVKGQLTLTEPGDRLLHHASRILGEVKDAEEGLQAVKDVEQGSITIGLISTSKYFAPKLLADFTALHPGVDLRIAEGNRETLLRLLQDNAIDLALMGRPPRELDAVSEPIAAHPHVLVASPRHPLHDAKGFDLQELRHETFLLREPGSDTRTVAEYMFRDHLFTPAKVITLGSNETIKQAVMAGMGISLLSLHTLGLELRTGEIGLLDVAGTPIERIWHVAHMSSKRLSPASESCRAYLLEHTAEFLGREYGGLMPGRRVA , can you help?
Ans. 148 nmol/min/mg of protein
